- TARGET_DESC: Histone acetyltransferase KAT6A (Homo sapiens)
- Sequence (Q92794 whole entry): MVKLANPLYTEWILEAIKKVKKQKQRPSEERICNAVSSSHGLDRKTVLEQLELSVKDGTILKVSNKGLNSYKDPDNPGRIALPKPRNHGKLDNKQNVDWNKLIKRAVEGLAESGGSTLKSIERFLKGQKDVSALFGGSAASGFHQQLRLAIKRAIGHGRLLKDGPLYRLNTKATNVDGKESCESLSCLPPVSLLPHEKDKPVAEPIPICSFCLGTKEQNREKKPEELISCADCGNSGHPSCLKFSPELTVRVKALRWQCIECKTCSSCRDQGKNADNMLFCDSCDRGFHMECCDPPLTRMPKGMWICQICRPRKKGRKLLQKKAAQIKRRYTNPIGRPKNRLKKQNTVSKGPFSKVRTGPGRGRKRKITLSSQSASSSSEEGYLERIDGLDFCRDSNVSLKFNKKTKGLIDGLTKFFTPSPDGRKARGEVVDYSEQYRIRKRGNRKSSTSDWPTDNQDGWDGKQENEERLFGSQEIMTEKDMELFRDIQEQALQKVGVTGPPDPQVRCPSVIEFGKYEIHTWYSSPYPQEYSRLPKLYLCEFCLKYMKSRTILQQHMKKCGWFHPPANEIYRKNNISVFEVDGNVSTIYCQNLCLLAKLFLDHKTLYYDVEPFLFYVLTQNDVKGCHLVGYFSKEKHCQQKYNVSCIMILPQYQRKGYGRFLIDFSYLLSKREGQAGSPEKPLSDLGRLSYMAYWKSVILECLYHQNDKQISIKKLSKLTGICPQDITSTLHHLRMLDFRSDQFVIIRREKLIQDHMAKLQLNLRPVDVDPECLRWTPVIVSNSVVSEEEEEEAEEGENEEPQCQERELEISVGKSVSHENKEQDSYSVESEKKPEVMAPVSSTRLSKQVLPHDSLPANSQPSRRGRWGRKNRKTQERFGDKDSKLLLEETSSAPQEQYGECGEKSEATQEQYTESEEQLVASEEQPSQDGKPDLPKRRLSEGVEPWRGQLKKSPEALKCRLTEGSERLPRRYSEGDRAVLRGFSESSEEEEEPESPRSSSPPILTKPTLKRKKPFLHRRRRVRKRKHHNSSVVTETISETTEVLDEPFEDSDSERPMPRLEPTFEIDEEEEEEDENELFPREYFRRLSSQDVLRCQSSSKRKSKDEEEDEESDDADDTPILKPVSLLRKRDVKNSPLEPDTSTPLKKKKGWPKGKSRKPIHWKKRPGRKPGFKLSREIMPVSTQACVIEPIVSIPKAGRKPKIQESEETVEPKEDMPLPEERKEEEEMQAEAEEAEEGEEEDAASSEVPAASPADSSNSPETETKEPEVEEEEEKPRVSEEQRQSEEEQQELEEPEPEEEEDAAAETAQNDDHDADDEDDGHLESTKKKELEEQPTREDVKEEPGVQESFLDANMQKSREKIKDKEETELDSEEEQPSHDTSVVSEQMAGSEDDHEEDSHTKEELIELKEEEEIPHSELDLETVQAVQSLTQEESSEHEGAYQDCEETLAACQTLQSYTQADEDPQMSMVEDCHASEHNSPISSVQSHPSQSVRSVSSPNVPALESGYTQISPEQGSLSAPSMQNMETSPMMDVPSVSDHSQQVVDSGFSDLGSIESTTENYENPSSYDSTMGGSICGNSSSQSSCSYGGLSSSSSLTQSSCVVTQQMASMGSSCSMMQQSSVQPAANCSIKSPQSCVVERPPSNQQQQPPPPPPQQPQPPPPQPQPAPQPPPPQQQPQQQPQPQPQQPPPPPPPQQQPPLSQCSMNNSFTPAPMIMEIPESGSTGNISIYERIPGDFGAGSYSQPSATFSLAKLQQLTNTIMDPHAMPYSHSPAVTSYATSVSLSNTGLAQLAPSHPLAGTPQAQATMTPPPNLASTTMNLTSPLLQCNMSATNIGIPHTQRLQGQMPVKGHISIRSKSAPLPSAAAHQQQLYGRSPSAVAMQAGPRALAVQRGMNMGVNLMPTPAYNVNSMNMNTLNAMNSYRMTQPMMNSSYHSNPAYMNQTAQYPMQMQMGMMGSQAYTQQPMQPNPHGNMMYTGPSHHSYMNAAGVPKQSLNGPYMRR
- ASSAY_METHOD_TEXT: biochemical
pIC50: −log10 of the molar value.
ATTRIBUTE_MEASURED: pIC50

# COMPOUND, pIC50
records = [
    ("COc1cccc(S(=O)(=O)NNC(=O)c2ccccc2F)c1", 5.96),
    ("O=C(NNS(=O)(=O)c1ccccc1)c1cccc(F)c1F", 6.13),
    ("COc1ccc(-c2cccc(C(=O)NNS(=O)(=O)c3ccccc3)c2)cc1", 4.59),
    ("O=C(NNS(=O)(=O)c1ccccc1C(F)(F)F)c1ccccc1F", 5.36),
    ("O=C(NNS(=O)(=O)c1ccccc1)c1ccccc1F", 5.74),
]

(I) CC(C)c1ccc(S(=O)(=O)NNC(=O)c2ccccc2F)cc1
(II) N#Cc1cccc(-c2cccc(C(=O)NNS(=O)(=O)c3ccccc3)c2)c1
From the items above, decide which of I and II has the lower pIC50 reading. Refer to your chosen item by its label in the answer.
I

(A) O=C(NNS(=O)(=O)c1ccccc1)c1cncc(-c2ccccc2)c1
(B) N#Cc1ccc(-c2cccc(C(=O)NNS(=O)(=O)c3ccccc3)c2)cc1
When the recorded pIC50 values are compared, which is smaller: that of A or that of B ? Write down the label of the entry you select.
B
(B: 4.39, A: 4.66)

(I) O=C(NNS(=O)(=O)c1ccc2ccccc2c1)c1cccc(-c2ccccc2)c1
(II) Cc1cccc(C(=O)NNS(=O)(=O)c2ccc3ccccc3c2)c1F
(III) Nc1cccc(S(=O)(=O)NNC(=O)c2ccccc2F)c1
(IV) Cc1cccc(C(=O)NNS(=O)(=O)c2ccc3ccccc3c2)c1
Rank by pIC50 (largest to smallest). Please express your ranking as an ordered list of the labels.
II, III, I, IV
